Measured % binding @ 100 nM vWF values are reported for all entries that follow.
# Tested on: full length human vWF (SEQ ID NO 7)
# testDetails: dot blot KD determination and extent of binding, full length human vWF;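 further: dot blot binding of aptamers to full length human vWF across a protein titration, incubated 30 minutes at room temperature in 1x DPBS with BSA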
# runParameters: Phase 1 modification; extent of aptamer binding at 100 nM full length human vWF
Oligonucleotides are written 5' to 3', each unit as a sugar letter and its base; * is a phosphorothioate linkage, no mark a phosphodiester; rarer units and linkages stand in square brackets, end groups in braces. Plain capitals give the bases only. [invdT] = inverted (3'-3') thymidine; d = 2'-deoxy (DNA); m = 2'-O-methyl
Give the value in % but do not write % after it.

substance="ARC1209: ARC1172 with one residue replaced by 2'-O methyl residue (DNA dGdGdCdGdTdGdCdAdGdTdGdCdCdTdTmCdGdGdCdCdGdTdGdCdGdGdTdGdCdCdTdCdCdGdTdCdAdCdGdCdC[invdT]; aptamer)" endpointvalue=44

Query string: Query % binding @ 100 nM vWF for ARC1236: ARC1172 with composite 2'-O methyl replacements in the stem regions (dGdGmCdGmUdGdCdAdGdTdGdCdCdTdTdCdGdGdCdCdGdTdGdCdGdGdTdGdCdCdTdCdCdGdTmCdAmCdGmCmC[invdT]; aptamer)
Result string: 32

Query string: Complete the entry with % binding @ 100 nM vWF for ARC1214: ARC1172 with one residue replaced by 2'-O methyl residue (DNA dGdGdCdGdTdGdCdAdGdTdGdCdCdTdTdCdGdGdCdCmGdTdGdCdGdGdTdGdCdCdTdCdCdGdTdCdAdCdGdCdC[invdT]; aptamer)
Result string: 39

Query string: Tell us which % binding @ 100 nM vWF value is on record for ARC1199: ARC1172 with one residue replaced by 2'-O methyl residue (DNA dGdGdCdGdTmGdCdAdGdTdGdCdCdTdTdCdGdGdCdCdGdTdGdCdGdGdTdGdCdCdTdCdCdGdTdCdAdCdGdCdC[invdT]; aptamer)
Result string: 28

Query string: Using the record for ARC1206: ARC1172 with one residue replaced by 2'-O methyl residue (DNA dGdGdCdGdTdGdCdAdGdTdGdCmCdTdTdCdGdGdCdCdGdTdGdCdGdGdTdGdCdCdTdCdCdGdTdCdAdCdGdCdC[invdT]; aptamer) , state its measured % binding @ 100 nM vWF.
Result string: 50

Query string: State, in one line, measured % binding @ 100 nM vWF of ARC1225: ARC1172 with one residue replaced by 2'-O methyl residue (dGdGdCdGdTdGdCdAdGdTdGdCdCdTdTdCdGdGdCdCdGdTdGdCdGdGdTdGdCdCdTmCdCdGdTdCdAdCdGdCdC[invdT]; aptamer)
Result string: 16

Query string: Could you please provide reported % binding @ 100 nM vWF for ARC1218: ARC1172 with one residue replaced by 2'-O methyl residue (DNA dGdGdCdGdTdGdCdAdGdTdGdCdCdTdTdCdGdGdCdCdGdTdGdCmGdGdTdGdCdCdTdCdCdGdTdCdAdCdGdCdC[invdT]; aptamer) ? Thanks!
Result string: 2

Query string: Fill in % binding @ 100 nM vWF for record ARC1235: ARC1172 with composite 2'-O methyl replacements in the stem regions (mGmGdCmGdTmGdCdAdGdTdGdCdCdTdTdCdGdGdCdCdGdTdGdCdGdGdTdGdCdCdTdCdCdGdTdCmAdCmGdCdC[invdT]; aptamer)
Result string: 23

Query string: Provide one value: measured % binding @ 100 nM vWF of ARC1198: ARC1172 with one residue replaced by 2'-O methyl residue (DNA dGdGdCdGmUdGdCdAdGdTdGdCdCdTdTdCdGdGdCdCdGdTdGdCdGdGdTdGdCdCdTdCdCdGdTdCdAdCdGdCdC[invdT]; aptamer)
Result string: 50
